Values compiled from patent US20230219979A1.

Molecular target: Ba/F3-KIF5B-RET cell (Homo sapiens)
Construct: fused on or other part: P33176 (Kinesin-1 heavy chain)
Test: CellTiter-Glo luminescence assay, inhibitory activity against Ba/F3-KIF5B-RET cell
Type: cell-based
Conditions: 72 h, read-out: Ba/F3-KIF5B-RET cell activity
test readout: GI50 (nM)

Solved entries:
COc1ccc(CN2C3CC2CN(c2cnc(-c4cc(OCCN5CCC6(CC5)CC(=O)N6)cn5ncc(C#N)c45)cn2)C3)cn1 :: 83.3
COc1ccc(CN2C3CC2CN(c2ccc(-c4cc(OCC(C)(C)O)cn5ncc(C#N)c45)cn2)C3)cn1 [LOXO-292, reference compound] :: 7.08
COc1ccc(CN2C3CC2CN(c2ccc(-c4cc(N5CCOCC5)cn5ncc(C#N)c45)cn2)C3)cn1 :: 1.97

1: COc1ccc(CN2C3CC2CN(c2ccc(-c4cc(N5CCCC5)cn5ncc(C#N)c45)cn2)C3)cn1
2: COc1ccc(CN2C3CC2CN(c2cnc(-c4cc(OCCN5CC6(CCCNC6)C5)cn5ncc(C#N)c45)cn2)C3)cn1
3: COc1ccc(CN2C3CC2CN(c2cnc(-c4cc(OCCN5CC6CCCNC6C5)cn5ncc(C#N)c45)cn2)C3)cn1 (stereo not shown)
4: COc1ccc(CN2C3CC2CN(c2cnc(-c4cc(OCCN5CC6(CCCOC6)C5)cn5ncc(C#N)c45)cn2)C3)cn1
Q: List items by GI50 in falling order. Returns: the labels listed in the requested order.
Ans: 2, 3, 4, 1

----------
Molecular target: Ba/F3-KIF5B-RET cell (Homo sapiens, UniProt P07949)
Construct: fused on or other part: P33176 (Kinesin-1 heavy chain)
Sequence (P07949 whole entry, change not shown, the tested form may be a part): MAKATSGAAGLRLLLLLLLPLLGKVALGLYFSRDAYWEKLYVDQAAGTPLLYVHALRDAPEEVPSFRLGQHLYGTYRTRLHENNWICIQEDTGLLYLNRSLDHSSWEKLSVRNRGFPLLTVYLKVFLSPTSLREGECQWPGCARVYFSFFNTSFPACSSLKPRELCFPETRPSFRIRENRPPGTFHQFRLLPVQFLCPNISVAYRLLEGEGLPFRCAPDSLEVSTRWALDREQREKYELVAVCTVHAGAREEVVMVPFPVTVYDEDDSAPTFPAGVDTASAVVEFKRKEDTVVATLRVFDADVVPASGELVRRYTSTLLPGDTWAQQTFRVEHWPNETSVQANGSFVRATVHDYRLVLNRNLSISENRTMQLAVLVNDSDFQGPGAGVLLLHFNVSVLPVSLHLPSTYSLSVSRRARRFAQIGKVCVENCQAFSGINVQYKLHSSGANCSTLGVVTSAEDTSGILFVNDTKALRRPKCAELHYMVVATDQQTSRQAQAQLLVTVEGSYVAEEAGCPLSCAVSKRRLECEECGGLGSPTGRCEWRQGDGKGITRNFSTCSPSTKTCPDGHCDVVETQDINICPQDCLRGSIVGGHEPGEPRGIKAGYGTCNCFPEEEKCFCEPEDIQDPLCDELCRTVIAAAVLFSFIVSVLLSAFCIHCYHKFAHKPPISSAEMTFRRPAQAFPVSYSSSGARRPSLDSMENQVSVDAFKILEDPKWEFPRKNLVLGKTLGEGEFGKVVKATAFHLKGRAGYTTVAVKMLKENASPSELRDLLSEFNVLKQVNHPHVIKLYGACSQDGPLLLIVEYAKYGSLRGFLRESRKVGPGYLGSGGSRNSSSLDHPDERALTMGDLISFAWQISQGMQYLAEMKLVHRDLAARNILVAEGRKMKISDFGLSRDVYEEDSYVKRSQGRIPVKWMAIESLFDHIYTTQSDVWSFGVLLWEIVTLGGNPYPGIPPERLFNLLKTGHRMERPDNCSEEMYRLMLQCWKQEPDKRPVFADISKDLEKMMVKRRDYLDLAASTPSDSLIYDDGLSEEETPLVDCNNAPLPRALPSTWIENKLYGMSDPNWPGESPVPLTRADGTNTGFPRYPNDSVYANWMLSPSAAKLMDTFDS
Experiment: CellTiter-Glo luminescence assay, inhibitory activity against Ba/F3-KIF5B-RET cell
Format: cell-based
Details: 72 h, read-out: Ba/F3-KIF5B-RET cell activity
test readout: GI50 (nM)

Please review the following examples before continuing.
COc1ccc(CN2C3CC2CN(c2ccc(-c4cc(NCC(F)F)cn5ncc(C#N)c45)cn2)C3)cn1 [Compound 50] :: 5.75
COc1ccc(CN2C3CC2CN(c2cnc(-c4cc(OCCN5CCC6(CCNC6)CC5)cn5ncc(C#N)c45)cn2)C3)cn1 [Compound 21] :: 192
CCNc1cc(-c2ccc(N3CC4CC(C3)N4Cc3ccc(OC)nc3)nc2)c2c(C#N)cnn2c1 [Compound 62] :: 1.82
COc1ccc(CN2C3CC2CN(c2ccc(-c4cc(NCCF)cn5ncc(C#N)c45)cn2)C3)cn1 [Compound 49] :: 1.52

a: COc1ccc(CN2C3CC2CN(c2cnc(-c4cc(OCC5C[C@H]6CC[C@@H](C5)N6)cn5ncc(C#N)c45)cn2)C3)cn1 (stereo partly shown) [Compound 40]
b: COc1ccc(CN2C3CC2CN(c2ccc(-c4cc(N(C)CCN(C)C)cn5ncc(C#N)c45)cn2)C3)cn1 [Compound 61]
c: COc1ccc(CN2C3CC2CN(c2cnc(-c4cc(OCCN5CC6(COC6)C5)cn5ncc(C#N)c45)cn2)C3)cn1 [Compound 36]
Q: Ordering criterion: GI50; begin with the maximum. Write the labels, ordered according to the request.
Ans: a, b, c
(a: 208 nM, b: 60.4 nM, c: 32.1 nM)

----------
Target: Wild-type RET kinase (Homo sapiens, UniProt P07949)
Sequence (P07949 29-1114): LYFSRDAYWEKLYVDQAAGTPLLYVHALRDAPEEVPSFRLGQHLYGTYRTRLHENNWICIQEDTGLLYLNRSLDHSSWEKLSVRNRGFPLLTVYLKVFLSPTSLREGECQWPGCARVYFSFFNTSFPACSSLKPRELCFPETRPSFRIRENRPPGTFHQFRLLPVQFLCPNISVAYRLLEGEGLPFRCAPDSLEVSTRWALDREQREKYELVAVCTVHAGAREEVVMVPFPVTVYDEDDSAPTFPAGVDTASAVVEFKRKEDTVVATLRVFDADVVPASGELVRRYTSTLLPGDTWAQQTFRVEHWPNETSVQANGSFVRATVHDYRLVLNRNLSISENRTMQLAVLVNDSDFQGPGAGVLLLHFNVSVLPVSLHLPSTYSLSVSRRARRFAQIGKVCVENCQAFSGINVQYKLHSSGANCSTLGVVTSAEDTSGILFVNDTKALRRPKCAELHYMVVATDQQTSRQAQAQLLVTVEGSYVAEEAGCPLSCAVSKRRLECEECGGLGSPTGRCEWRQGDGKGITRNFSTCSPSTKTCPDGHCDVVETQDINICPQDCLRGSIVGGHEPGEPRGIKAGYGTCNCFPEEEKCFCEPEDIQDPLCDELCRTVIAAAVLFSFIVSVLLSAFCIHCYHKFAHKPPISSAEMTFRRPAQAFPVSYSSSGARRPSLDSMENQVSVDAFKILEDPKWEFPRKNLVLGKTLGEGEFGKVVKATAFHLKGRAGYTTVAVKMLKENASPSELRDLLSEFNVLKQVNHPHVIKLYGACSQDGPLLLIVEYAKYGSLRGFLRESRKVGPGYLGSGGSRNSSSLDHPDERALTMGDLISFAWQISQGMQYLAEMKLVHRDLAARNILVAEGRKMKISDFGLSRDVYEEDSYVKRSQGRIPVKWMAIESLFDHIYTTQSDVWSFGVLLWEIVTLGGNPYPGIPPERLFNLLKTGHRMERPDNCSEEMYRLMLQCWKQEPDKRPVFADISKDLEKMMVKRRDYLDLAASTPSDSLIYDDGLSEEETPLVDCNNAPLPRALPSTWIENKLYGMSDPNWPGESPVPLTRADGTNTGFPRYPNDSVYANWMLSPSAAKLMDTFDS
Experiment: HTRF method for testing the inhibitory activity of compounds against RET
Assay type: biochemical
Settings: HTRF; read-out: Wild-type RET kinase
test readout: IC50 (nM)

Guide cases for IC50, answers given:
COc1ccc(CN2C3CC2CN(c2ccc(-c4cc(NCC(F)(F)F)cn5ncc(C#N)c45)cn2)C3)cn1 :: 0.2
CNc1cc(-c2ccc(N3CC4CC(C3)N4Cc3ccc(OC)nc3)nc2)c2c(C#N)cnn2c1 :: 0.04

A: COc1ccc(CN2CCN(c3ccc(-c4cc(-c5cnn(C)c5)cn5ncc(C(N)=O)c45)cn3)CC2)cn1
B: COc1ccc(CN2C3CC2CN(c2cnc(-c4cc(OCCN5CCC6(CCNC6)CC5)cn5ncc(C#N)c45)cn2)C3)cn1
C: COc1ccc(CN2C3CC2CN(c2ccc(-c4cc(NCC(=O)N(C)C)cn5ncc(C#N)c45)cn2)C3)cn1
D: COc1ccc(CN2C3CC2CN(c2cnc(-c4cc(OCCN5CCC6(CC5)COC6)cn5ncc(C#N)c45)cn2)C3)cn1
Q: Put the items in order so that reported IC50 rises from first to last. Please, when replying, give the labels in the order that was requested.
Ans: B, C, D, A
